Where do these numbers come from? They come from patent US20230159469A1.

# target-or-system: human recombinant ENPP1 (Homo sapiens, UniProt P22413)
# Construct: purchased R & D systems
# test-summary: ENPP1 enzyme assay with cGAMP substrate (AMP-Glo luminescence)
# Type: biochemical
# reported-conditions: human recombinant ENPP1 3 ng/reaction, cGAMP 5 μM, 37° C. 90 minutes, read-out: Enzymatic activity (ENPP1 IC50)
Counter-ions that a name gives are not always drawn.
For each of the compounds below, state its IC50.

compound	IC50
NS(=O)(=O)NCc1ccc(-c2nn(-c3ccccc3)c(=O)c3ccccc23)cc1 [Compound No. 100, hydrochloride]	< 1 µM
COc1cc2c(-c3ccc(CN)cc3)nn(C)c(=O)c2cc1OC [Compound No. 49, hydrochloride]	< 1 µM
Cn1nc(Cc2ccc(NS(=O)(=O)NC(=O)OC(C)(C)C)cc2)c2ccccc2c1=O	> 10 µM
COc1cc2c(Cc3ccc(N(C)S(N)(=O)=O)cc3)n[nH]c(=O)c2cc1OC [Example 185, hydrochloride]	< 1 µM
NS(=O)(=O)NCc1ccc(-c2n[nH]c(=O)c3ccccc23)cc1 [Compound No. 96, hydrochloride]	< 1 µM

Batch lookup, IC50 per entry.
1. COc1ccc2c(=O)n(C)nc(-c3ccc(CNS(=O)(=O)NC(=O)OC(C)(C)C)cc3)c2c1
2. CC(C)(C)OC(=O)Nc1cccc(-c2nn(Cc3ccccc3)c(=O)c3ccccc23)c1

Completion:
> 10 µM
> 10 µM

---

For each of the compounds below, state its IC50.
# target-or-system: human recombinant ENPP1 (Homo sapiens)
# Sequence (P22413 1-925): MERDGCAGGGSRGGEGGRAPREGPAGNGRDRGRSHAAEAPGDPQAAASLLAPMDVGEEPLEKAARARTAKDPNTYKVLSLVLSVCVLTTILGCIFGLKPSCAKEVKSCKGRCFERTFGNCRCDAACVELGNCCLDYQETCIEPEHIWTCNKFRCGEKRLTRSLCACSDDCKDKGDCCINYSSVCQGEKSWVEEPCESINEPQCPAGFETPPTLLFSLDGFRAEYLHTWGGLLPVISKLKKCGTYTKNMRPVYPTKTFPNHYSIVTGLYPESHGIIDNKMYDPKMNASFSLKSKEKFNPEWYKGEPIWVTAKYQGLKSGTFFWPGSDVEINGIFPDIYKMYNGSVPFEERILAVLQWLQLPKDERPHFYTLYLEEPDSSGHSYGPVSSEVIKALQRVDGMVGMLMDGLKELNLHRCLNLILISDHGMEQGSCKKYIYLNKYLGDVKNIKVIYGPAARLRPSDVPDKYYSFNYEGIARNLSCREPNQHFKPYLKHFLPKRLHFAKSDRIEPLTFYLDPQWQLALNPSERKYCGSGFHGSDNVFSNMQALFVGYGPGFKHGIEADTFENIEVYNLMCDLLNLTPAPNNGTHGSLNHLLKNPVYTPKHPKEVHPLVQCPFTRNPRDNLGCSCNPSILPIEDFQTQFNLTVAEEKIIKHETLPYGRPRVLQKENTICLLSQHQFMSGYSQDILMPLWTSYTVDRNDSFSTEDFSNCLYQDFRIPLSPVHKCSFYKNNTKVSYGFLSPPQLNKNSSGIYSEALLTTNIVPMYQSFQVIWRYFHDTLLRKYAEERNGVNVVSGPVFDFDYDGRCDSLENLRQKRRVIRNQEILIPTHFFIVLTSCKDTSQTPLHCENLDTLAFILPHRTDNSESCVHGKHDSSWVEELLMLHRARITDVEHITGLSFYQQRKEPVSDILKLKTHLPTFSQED
# test-summary: ENPP1 enzyme assay with cGAMP substrate (AMP-Glo luminescence)
# reported-conditions: human recombinant ENPP1 3 ng/reaction, cGAMP 5 μM, 37° C. 90 minutes, read-out: Enzymatic activity (ENPP1 IC50)
Structures can show the parent of a compound that is named as a salt.

Batch lookup, IC50 per entry.
1. COc1ccc2c(-c3ccc(CN)cc3)nn(C)c(=O)c2c1 [Compound No. 46, hydrochloride]
2. COc1cc2c(-c3ccc(CNS(N)(=O)=O)cc3C(F)(F)F)n[nH]c(=O)c2cc1OC [Compound No. 116, hydrochloride]
3. CC(C)(C)OC(=O)NS(=O)(=O)N1CCc2cc(-c3n[nH]c(=O)c4ccccc34)ccc2C1
4. COc1ccc2c(=O)[nH]nc(-c3ccc(CNS(N)(=O)=O)cc3)c2c1 [Compound No. 103, hydrochloride]
5. CNS(=O)(=O)Cc1ccc(-c2nn(C)c(=O)c3ccccc23)cc1
6. CC(C)(NS(N)(=O)=O)c1ccc(-c2n[nH]c(=O)c3ccccc23)cc1 [Compound No. 125, hydrochloride]
7. CC(C)(C)OC(=O)NCc1ccc(-c2n[nH]c(=O)c3ccccc23)cc1C(F)(F)F

Completion:
1: > 10 µM; 2: 1 to 10 µM; 3: > 10 µM; 4: < 1 µM; 5: > 10 µM; 6: 1 to 10 µM; 7: > 10 µM
